This collection of values is drawn from ChEMBL document CHEMBL4689842.

# Test system: U2OS
# measurement-notes: Multiplex assay against U2OS
# Format: toxicity, cell-based
# condition-set: human, 48 h, 1 µM, compound concentration 1 uM, replicate 1
// Population Mitochondria Different-Phenotype (%) lookup, one value per entry
measure-name: Population Mitochondria Different-Phenotype (%)

[
  {
    "compound": "CC(=O)c1cc(-c2cc(C(=O)NC3CC3)ccc2C)c2ncccn12",
    "tgt": "U2OS",
    "value-observed": 9
  },
  {
    "compound": "Cc1cc2c(cc1N1C(=O)c3cccc4c(CCCO)ccc(c34)C1=O)n(C)c(=O)n2C",
    "tgt": "U2OS",
    "value-observed": 43
  },
  {
    "compound": "Cc1nc(Cc2cccc(C(F)(F)F)c2)sc1-c1ccc(C(N)=O)nc1 [TP-024n]",
    "tgt": "U2OS",
    "value-observed": 8
  },
  {
    "compound": "Nc1ccc(C(=O)Nc2cccc(-c3nc(N4CCOCC4)c4oc5ncccc5c4n3)c2)cn1",
    "tgt": "U2OS",
    "value-observed": 28
  },
  {
    "compound": "CCn1c(-c2nonc2N)nc2cnc(Oc3cccc(NC(=O)c4ccc(OCCN5CCOCC5)cc4)c3)cc21 [GSK-269962A]",
    "tgt": "U2OS",
    "value-observed": 22
  },
  {
    "compound": "Nc1nc2c(c(N3CCNCC3)n1)CCC1=C2[C@@H]2CCCC[C@@H]2O1",
    "tgt": "U2OS",
    "value-observed": 5
  },
  {
    "compound": "COc1ccc(NS(=O)(=O)c2sc3ccc(Cl)cc3c2C)cc1N1CCNCC1.Cl",
    "tgt": "U2OS",
    "value-observed": 8
  },
  {
    "compound": "Cl.Cl.Nc1ncnc2c1c(-c1cccc(OCc3ccccc3)c1)cn2[C@H]1C[C@@H](CN2CCC2)C1",
    "tgt": "U2OS",
    "value-observed": 34
  },
  {
    "compound": "CCCn1c(=O)c2[nH]c(C34CC5CC(CC3C5)C4)nc2n(CCC)c1=O [ROLOFYLLINE]",
    "tgt": "U2OS",
    "value-observed": 10
  },
  {
    "compound": "COc1cc2c(NC3CCN(C(C)C)CC3)nc(N3CCC(F)(F)CC3)nc2cc1OCCCN1CCCC1",
    "tgt": "U2OS",
    "value-observed": 4
  },
  {
    "compound": "CNc1oc(-c2cccc3ccccc23)nc1C#N",
    "tgt": "U2OS",
    "value-observed": 7
  },
  {
    "compound": "CCC(=O)O[C@]1(C(=O)SCF)[C@H](C)C[C@H]2[C@@H]3C[C@H](F)C4=CC(=O)C=C[C@]4(C)[C@@]3(F)[C@@H](O)C[C@@]21C [FLUTICASONE PROPIONATE]",
    "tgt": "U2OS",
    "value-observed": 10
  },
  {
    "compound": "CC(C)N1CCC(C)(C)c2cc(C#Cc3ccc(C(=O)O)cc3)ccc21",
    "tgt": "U2OS",
    "value-observed": 5
  },
  {
    "compound": "O=C(O)c1ccc2cc(-c3ccc(O)c(C45CC6CC(CC(C6)C4)C5)c3)ccc2c1 [O-DEMETHYLATED ADAPALENE]",
    "tgt": "U2OS",
    "value-observed": 31
  }
]
